Molecular target: Recombinant human HSD17B13 enzyme (Homo sapiens (Human))
Sequence (Q7Z5P4 20-300): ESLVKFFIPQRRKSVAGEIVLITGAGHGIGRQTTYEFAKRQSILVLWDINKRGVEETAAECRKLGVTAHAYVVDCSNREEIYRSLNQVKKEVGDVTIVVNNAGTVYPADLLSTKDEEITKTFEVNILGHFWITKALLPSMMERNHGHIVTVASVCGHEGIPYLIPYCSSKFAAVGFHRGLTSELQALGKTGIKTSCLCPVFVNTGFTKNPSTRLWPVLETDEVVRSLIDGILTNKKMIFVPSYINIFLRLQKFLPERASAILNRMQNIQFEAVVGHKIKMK
Test: HSD17b13 NAD(P)H-Glo Biochemical Assay
Details: 50 uM estradiol, 1 mM NAD+; read-out: HSD17β13 IC50
pIC50: −log10 of the molar value.
measure: pIC50

>>> result("CS(=O)(=O)N1CCN(c2ccc3c(cnn3-c3nccc(O)c3F)c2)CC1 [Compound 28.06]")
"4.52 to 6.00"

In: Provide value of pIC50 for this record tested with Recombinant human HSD17B13 enzyme (Homo sapiens (Human)): Oc1cc(-n2ncc3cc(-c4ccc(OC(F)F)cc4Cl)ccc32)ccc1F [Compound 5.08]
Out: 6.00 to 7.00

In: Provide value of pIC50 for this record tested with Recombinant human HSD17B13 enzyme (Homo sapiens (Human)): Nc1ccc(-c2ccc3c(cnn3-c3ccc(F)c(O)c3)c2)c(Cl)c1 [Compound 9]
Out: 6.00 to 7.00

In: Provide value of pIC50 for this record tested with Recombinant human HSD17B13 enzyme (Homo sapiens (Human)): Cc1nn(-c2cc(C(F)(F)F)c(F)c(O)c2F)c2cc(F)c(N(C)C3CCOCC3)nc12 [Compound 19.66]
Out: > 7.00

In: Provide value of pIC50 for this record tested with Recombinant human HSD17B13 enzyme (Homo sapiens (Human)): Cc1nn(-c2cc(C(F)(F)F)c(F)c(O)c2F)c2ccc(N3CCOCC34CC4)nc12 [Compound 19.48]
Out: 6.00 to 7.00

In: Provide value of pIC50 for this record tested with Recombinant human HSD17B13 enzyme (Homo sapiens (Human)): CS(=O)(=O)N1CCN(c2ccc3nn(-c4cc(C(F)(F)F)cc(O)n4)cc3c2)CC1 [Compound 31.01]
Out: 4.52 to 6.00

In: Provide value of pIC50 for this record tested with Recombinant human HSD17B13 enzyme (Homo sapiens (Human)): O=S(=O)(CC1CC1)N1CCN(c2cc3cnn(-c4cc(O)c(F)c(F)c4)c3cc2Cl)CC1 [Compound 21.38]
Out: 6.00 to 7.00

In: Provide value of pIC50 for this record tested with Recombinant human HSD17B13 enzyme (Homo sapiens (Human)): Oc1cncc(-n2ncc3cc(-c4ccc(O)c(Cl)c4)ccc32)c1 [Compound 17]
Out: 6.00 to 7.00

Reference for the values: patent US20240034736A1
